Answer each item with its documented EC50.
# assayed target: human KV7.2/KV7.3 (Homo sapiens (Human), UniProt O43525+O43526)
# assay method text: Potassium flux assay (IPG-2 AM dye)
# condition notes: TREX HEK 293 or HEK 293 cells expressing human KV7.2/KV7.3; arithmetic mean values

// recorded EC50 for Clc1ccc(Nc2nccc3cc(OC4CCCOC4)ccc23)cn1 (stereo not drawn) : < 1 µM

// recorded EC50 for C[Si](C)(C)CCOCN(c1ccc(Cl)nc1)c1nccc2cc(F)ccc12 : 1 to 10 µM

// recorded EC50 for Clc1ccc(Nc2nccc3cc(OCc4cnn(C5CC5)c4)ccc23)cn1 : 1 to 10 µM

// recorded EC50 for Cn1nc(COc2ccc3c(Nc4ccc(Cl)nc4)nccc3c2)cc1C#N : 1 to 10 µM

// recorded EC50 for CCC1(COc2ccc3c(Nc4ccc(Cl)nc4)nccc3c2)COC1 : < 1 µM

// recorded EC50 for Cc1ncc(Nc2nccc3cc(OCc4ccncc4)ccc23)cn1 : 1 to 10 µM

// recorded EC50 for CS(=O)(=O)C1(COc2ccc3c(Nc4ccc(Cl)nc4)nccc3c2)CCC1 : 1 to 10 µM

// recorded EC50 for CC1(C)CC1(C#N)COc1ccc2c(Nc3cnc(Cl)nc3)nccc2c1 (stereo not drawn) : < 1 µM

// recorded EC50 for CC(C)(C#N)COc1ccc2c(Nc3ccc(Cl)nc3)nccc2c1 : 1 to 10 µM

// recorded EC50 for O=C(N[C@@H]1CCC[C@H](Oc2ccc3c(Nc4cnc(Cl)nc4)nccc3c2)C1)C(F)(F)F : 1 to 10 µM

// recorded EC50 for [2H]C([2H])(Oc1ccc2c(Nc3cnc(Cl)nc3)nccc2c1)C1(F)CC1 : < 1 µM

// recorded EC50 for CC1(COc2ccc3c(Nc4ccc(Cl)nc4)nccc3c2)CC1 : 1 to 10 µM

----------
# assayed target: human KV7.2/KV7.3 (Homo sapiens (Human), UniProt O43525+O43526)
# assay method text: Potassium flux assay (IPG-2 AM dye)
# condition notes: TREX HEK 293 or HEK 293 cells expressing human KV7.2/KV7.3; arithmetic mean values
# From the text: This potassium flux assay employs the cell-permeable, potassium-sensitive dye, IPG-2 AM, to quantify potassium ion flux through potassium channels. In general, TREX HEK 293 or HEK 293 cells were stably transfected with either an inducible or non-inducible expression vector containing the full-length cDNA coding for the desired human KV7.2/KV7.3 or in combination with another full-length cDNA for a second desired human KV7 potassium channel. […]
Answer each item with its documented EC50.

Form field, EC50 with human KV7.2/KV7.3 (Homo sapiens (Human), UniProt O43525+O43526), item C[C@@H]1CN(CCOc2ccc3c(Nc4ccc(Cl)nc4)nccc3c2)C[C@H](C)O1 : 1 to 10 µM

Form field, EC50 with human KV7.2/KV7.3 (Homo sapiens (Human), UniProt O43525+O43526), item Cc1ncc(Nc2nccc3cc(N=S(C)(=O)C4CC4)ccc23)cn1 (centres unmarked) : 1 to 10 µM

Form field, EC50 with human KV7.2/KV7.3 (Homo sapiens (Human), UniProt O43525+O43526), item Clc1ncc(Nc2nccc3cccnc23)cn1 : 1 to 10 µM

Form field, EC50 with human KV7.2/KV7.3 (Homo sapiens (Human), UniProt O43525+O43526), item Clc1ccc(Nc2nccc3cc(CNc4cn[nH]c4)ccc23)cn1 : 1 to 10 µM

Form field, EC50 with human KV7.2/KV7.3 (Homo sapiens (Human), UniProt O43525+O43526), item CC[C@H](OC)c1ccc2c(Nc3ccc(Cl)nc3)nccc2c1 : ≥ 30 µM

Form field, EC50 with human KV7.2/KV7.3 (Homo sapiens (Human), UniProt O43525+O43526), item O[C@H]1CC[C@@H](Oc2ccc3c(Nc4ccc(Cl)nc4)nccc3c2)C1 (racemic) : < 1 µM

Form field, EC50 with human KV7.2/KV7.3 (Homo sapiens (Human), UniProt O43525+O43526), item COC(=O)c1ccc2c(Nc3ccc(Cl)nc3)nccc2c1 : 10 to 30 µM

Form field, EC50 with human KV7.2/KV7.3 (Homo sapiens (Human), UniProt O43525+O43526), item CN(c1cnc(Cl)nc1)c1nccc2cc(OCC3(F)CC3)ccc12 : ≥ 30 µM

Form field, EC50 with human KV7.2/KV7.3 (Homo sapiens (Human), UniProt O43525+O43526), item CC(=O)N[C@H]1CC[C@H](Oc2ccc3c(Nc4ccc(Cl)nc4)nccc3c2)CC1 : 1 to 10 µM

Form field, EC50 with human KV7.2/KV7.3 (Homo sapiens (Human), UniProt O43525+O43526), item O[C@H]1CC[C@H](Oc2ccc3c(Nc4ccc(Cl)nc4)nccc3c2)CC1 : 1 to 10 µM

Form field, EC50 with human KV7.2/KV7.3 (Homo sapiens (Human), UniProt O43525+O43526), item Clc1ccc(Nc2nccc3cc(OCCC4COC4)ccc23)cn1 : < 1 µM

----------
Answer each item with its documented pEC50.
# assayed target: human KV7.2/KV7.3 (Homo sapiens (Human), UniProt O43525+O43526)
# assay method text: Potassium flux assay (IPG-2 AM dye)
# condition notes: TREX HEK 293 or HEK 293 cells expressing human KV7.2/KV7.3; arithmetic mean values
pEC50: −log10 of the molar value.

// recorded pEC50 for Clc1ccc(Nc2nccc3cc(-c4cc[nH]n4)ccc23)cn1 : 5.00 to 6.00

// recorded pEC50 for FC1(COc2ccc3c(Nc4ccc(Cl)nc4)nccc3c2)CC1 : > 6.00

// recorded pEC50 for Clc1ccc(Nc2nccc3cc(OCc4ncco4)ccc23)cn1 : 5.00 to 6.00

----------
# assayed target: human KV7.2/KV7.3 (Homo sapiens (Human), UniProt O43525+O43526)
# assay method text: Potassium flux assay (IPG-2 AM dye)
# condition notes: TREX HEK 293 or HEK 293 cells expressing human KV7.2/KV7.3; arithmetic mean values
Answer each item with its documented EC50.

Form field, EC50 with human KV7.2/KV7.3 (Homo sapiens (Human), UniProt O43525+O43526), item C[C@]1(O)CC[C@@H](Oc2ccc3c(Nc4ccc(Cl)nc4)nccc3c2)CC1 : < 1 µM

Form field, EC50 with human KV7.2/KV7.3 (Homo sapiens (Human), UniProt O43525+O43526), item Cc1ncc(Nc2nccc3cc(OCC4CCC(C)(C)O4)ccc23)cn1 (centres unmarked) : 1 to 10 µM

Form field, EC50 with human KV7.2/KV7.3 (Homo sapiens (Human), UniProt O43525+O43526), item Cc1ncc(Nc2nccc3cc(OCC4(C)COC4)ccc23)cn1 : < 1 µM

Form field, EC50 with human KV7.2/KV7.3 (Homo sapiens (Human), UniProt O43525+O43526), item Clc1ccc(Nc2nccc3cc(OC4CCC45COC5)ccc23)cn1 (centres unmarked) : < 1 µM

Form field, EC50 with human KV7.2/KV7.3 (Homo sapiens (Human), UniProt O43525+O43526), item Clc1ccc(Nc2nccc3cc(OCc4nccs4)ccc23)cn1 : 1 to 10 µM

Form field, EC50 with human KV7.2/KV7.3 (Homo sapiens (Human), UniProt O43525+O43526), item Cc1ncc(Nc2nccc3cc(OCc4c[nH]nc4C)ccc23)cn1 : < 1 µM

Form field, EC50 with human KV7.2/KV7.3 (Homo sapiens (Human), UniProt O43525+O43526), item Clc1ccc(Nc2nccc3cc(OCc4cn[nH]c4)ccc23)cn1 : < 1 µM

Form field, EC50 with human KV7.2/KV7.3 (Homo sapiens (Human), UniProt O43525+O43526), item Clc1ncc(Nc2nccc3cc(OC[C@H]4COCCO4)ccc23)cn1 : < 1 µM

Form field, EC50 with human KV7.2/KV7.3 (Homo sapiens (Human), UniProt O43525+O43526), item Clc1ccc(Nc2nccc3cc(OCC4COC4)ccc23)cn1 : < 1 µM

Form field, EC50 with human KV7.2/KV7.3 (Homo sapiens (Human), UniProt O43525+O43526), item COc1cc(Nc2nccc3cc(OCC4(C)COC4)ccc23)cnc1Cl : < 1 µM

Form field, EC50 with human KV7.2/KV7.3 (Homo sapiens (Human), UniProt O43525+O43526), item Cc1ccc(Nc2nccc3cc(OCC4COC4)ccc23)cn1 : 1 to 10 µM
